Measured phosphorylation enrichment, listed per entry.
Test system: c-Src
protocol_text: phosphorylation enrichment, bacterial display (enrichment ratio); higher = better substrate or ligand; peptides without Tyr show the background;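 further: 11-residue human phosphosite peptides and single-mutation variants displayed on the E. coli surface, counted by deep sequencing, each peptide's frequency after selection divided by its frequency in the unselected input library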;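 further: frequency after pTyr selection over input frequency; kinase dosed for 20-30% of maximal phosphorylation in three min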
Field format: numeric only.

input_sequence: CLMILHRLKER [PTPRR_Y249_Y249H]
phosphorylation enrichment: 0.395
//
input_sequence: LWQSIYNLDAE [TNNT2_Y251_E254D]
phosphorylation enrichment: 6.55
//
input_sequence: PDSVDYRKKGF [CTSK_Y121_YF]
phosphorylation enrichment: 0.366
//
input_sequence: KSLSQYLEMDK [CAGE1_Y438_V435L]
phosphorylation enrichment: 0.4
//
input_sequence: ALWFIYLHTRS [ENG_Y614_S615L_YF]
phosphorylation enrichment: 0.411
//
input_sequence: KMKGDYYCYLA [YWHAG_Y130_R132C]
phosphorylation enrichment: 1.78

Next, consider the following sequence.
Which phosphorylation enrichment is reported for this sequence? ECKEAYHEGEC [PRKN_Y372]
0.541

----------
measured_target: FGFR1 (UniProt P11362)
Sequence (P11362 whole entry, looked up): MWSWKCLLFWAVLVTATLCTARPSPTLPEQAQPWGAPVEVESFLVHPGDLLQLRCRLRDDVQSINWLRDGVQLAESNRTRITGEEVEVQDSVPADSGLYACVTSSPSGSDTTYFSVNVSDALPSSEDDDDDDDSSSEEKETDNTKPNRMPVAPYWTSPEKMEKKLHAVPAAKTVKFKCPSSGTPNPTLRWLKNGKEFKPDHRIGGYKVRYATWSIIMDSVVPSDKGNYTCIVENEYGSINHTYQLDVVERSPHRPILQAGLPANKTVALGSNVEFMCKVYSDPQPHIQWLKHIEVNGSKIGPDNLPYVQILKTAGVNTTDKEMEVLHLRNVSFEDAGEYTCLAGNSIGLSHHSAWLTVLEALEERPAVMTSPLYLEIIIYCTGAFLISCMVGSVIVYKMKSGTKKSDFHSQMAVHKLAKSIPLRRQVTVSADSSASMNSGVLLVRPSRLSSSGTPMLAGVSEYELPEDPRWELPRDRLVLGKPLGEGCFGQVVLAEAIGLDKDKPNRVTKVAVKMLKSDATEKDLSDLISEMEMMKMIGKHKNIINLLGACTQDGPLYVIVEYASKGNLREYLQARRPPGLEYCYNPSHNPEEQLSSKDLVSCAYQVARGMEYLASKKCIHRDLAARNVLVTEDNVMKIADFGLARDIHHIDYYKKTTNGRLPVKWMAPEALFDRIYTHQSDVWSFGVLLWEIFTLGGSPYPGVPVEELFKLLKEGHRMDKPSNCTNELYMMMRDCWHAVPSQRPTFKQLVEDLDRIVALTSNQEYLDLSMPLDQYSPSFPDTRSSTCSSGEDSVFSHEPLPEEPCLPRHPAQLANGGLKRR
protocol_text: phosphorylation enrichment, bacterial display (enrichment ratio); higher = better substrate or ligand; peptides without Tyr show the background
Recorded phosphorylation enrichment determines the label; the label ranges are lower bin: < 0.5; middle bin: ≥ 0.5 and < 0.6; upper bin: ≥ 0.6

Before answering, review these 6 worked examples.
input_sequence: LNLKEYNLVGG [GNAQ_Y356]
assigned_category: lower bin
//
input_sequence: AAVDNYCRHNF [HLA-DRB1_Y107_T106N_YF]
assigned_category: lower bin
//
input_sequence: EGTATYAAAVL [JUP_Y644]
assigned_category: lower bin
//
input_sequence: IMICAYLLHRG [PTEN_Y138_V133I]
assigned_category: middle bin
//
input_sequence: RPYRPYIIRGM [LRP5_Y1531]
assigned_category: upper bin
//
input_sequence: GIVKAYYVRAR [AIPL1_Y267]
assigned_category: lower bin

Please indicate the class for SIIKDYFHRGT [GATM_Y203_A208T] based on its phosphorylation enrichment.
lower bin

Please indicate the class for VPVPGYTKLPE [SPRR3_Y146] based on its phosphorylation enrichment.
middle bin

Assign a bin to LASSEYPVQRR [GALK1_Y236_R239Q]
middle bin

----------
Test system: c-Src
protocol_text: phosphorylation enrichment, bacterial display (enrichment ratio); higher = better substrate or ligand; peptides without Tyr show the background
Label Condition met when phosphorylation enrichment is at or above 0.6; otherwise label Condition not met.

input_sequence: FQLPFYNTVPS [BMPR1A_Y458_M460T_YF]
assigned_category: Condition not met

input_sequence: YQEPVYSVAFS [TBL1X_Y509_H504Y]
assigned_category: Condition met

input_sequence: LLKKMYLMLDN [STAT1_Y203]
assigned_category: Condition not met

input_sequence: HRGCLYLAIEY [TEK_Y899_Y897C]
assigned_category: Condition met

input_sequence: CRERPYGGGGG [FUS_Y526_R521C]
assigned_category: Condition not met

input_sequence: PLDAEYFTLQI [TP53_Y327_G325A]
assigned_category: Condition met

input_sequence: LIYTNYEAGKD [GSTP1_Y112]
assigned_category: Condition met

input_sequence: DAASNYARGHY [TUBA3E_Y103]
assigned_category: Condition not met

input_sequence: INPIIYAFVGG [CCR5_Y297_E302G]
assigned_category: Condition met

input_sequence: SVTCTDSPALN [TP53_Y126_Y126D]
assigned_category: Condition not met

Textbook exercise: given the entry QFNIQYSSSAA [ERBB2IP_Y981_YF] , state whether its phosphorylation enrichment is greater than or equal to 0.6.
Condition met

Hi, just wondering whether MPPHICAITDT [MYH9_Y151_Y151C] shows phosphorylation enrichment of 0.6 or higher.
Condition not met

Evaluate `STKELYEKFMI` : phosphorylation enrichment at minimum 0.6?
Condition met

State whether the measured phosphorylation enrichment reaches 0.6, counting equality as reaching it, for ADYYDYGRGLS [KHDRBS3_Y304_H306R]
Condition met

Hi team, for PECEWYKNGVK [TTN_Y2112] , is the recorded phosphorylation enrichment at or above 0.6?
Condition not met

Reported phosphorylation enrichment at or above 0.6? ALVDTYCRHNY [HLA-DRB1_Y107_A103L]
Condition not met

Quick check, phosphorylation enrichment >= 0.6? IEEGTYGVVYR [CDK11B_Y449]
Condition met

----------
# phosphorylation enrichment per entry
measured_target: EPHB1 (UniProt P54762)
Sequence (P54762 whole entry, looked up): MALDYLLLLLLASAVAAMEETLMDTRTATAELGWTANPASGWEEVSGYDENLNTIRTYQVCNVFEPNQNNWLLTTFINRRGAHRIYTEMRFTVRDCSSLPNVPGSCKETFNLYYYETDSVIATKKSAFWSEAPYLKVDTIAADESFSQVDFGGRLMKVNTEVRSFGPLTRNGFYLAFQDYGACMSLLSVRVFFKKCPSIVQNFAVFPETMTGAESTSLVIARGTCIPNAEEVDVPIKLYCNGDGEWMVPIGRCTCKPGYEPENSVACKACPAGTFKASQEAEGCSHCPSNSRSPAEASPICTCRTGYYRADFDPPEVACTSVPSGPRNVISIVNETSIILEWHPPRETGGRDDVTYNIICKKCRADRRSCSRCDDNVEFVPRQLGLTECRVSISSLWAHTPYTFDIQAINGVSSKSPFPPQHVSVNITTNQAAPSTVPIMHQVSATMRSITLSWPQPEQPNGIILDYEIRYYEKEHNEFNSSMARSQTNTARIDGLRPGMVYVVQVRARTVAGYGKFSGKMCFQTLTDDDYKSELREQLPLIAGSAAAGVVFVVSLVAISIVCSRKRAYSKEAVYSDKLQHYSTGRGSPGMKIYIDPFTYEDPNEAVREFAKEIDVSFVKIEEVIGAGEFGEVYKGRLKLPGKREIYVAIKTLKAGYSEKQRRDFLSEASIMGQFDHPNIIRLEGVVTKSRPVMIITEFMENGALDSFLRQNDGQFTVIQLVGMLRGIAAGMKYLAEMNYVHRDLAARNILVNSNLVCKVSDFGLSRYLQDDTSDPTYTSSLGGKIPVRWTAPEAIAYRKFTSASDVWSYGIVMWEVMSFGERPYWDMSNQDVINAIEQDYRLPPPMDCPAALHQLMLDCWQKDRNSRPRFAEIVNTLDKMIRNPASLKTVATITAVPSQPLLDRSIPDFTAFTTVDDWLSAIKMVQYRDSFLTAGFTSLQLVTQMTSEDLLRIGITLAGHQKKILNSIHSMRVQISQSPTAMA
protocol_text: phosphorylation enrichment, bacterial display (enrichment ratio); higher = better substrate or ligand; peptides without Tyr show the background

input_sequence: IGEGTYGVLYK [CDK2_Y15_V18L]
phosphorylation enrichment: 1.55
--
input_sequence: NRLNDYIFSFD [RARS1_Y516]
phosphorylation enrichment: 0.538

For EEGESHVCSSD [DCX_Y125_Y125H] , what is its reported phosphorylation enrichment?
0.465

What does the data say about its phosphorylation enrichment? Entry: PVQAASQKVVA [HBB_Y131_Y131S]
0.592

Please give the measured phosphorylation enrichment for this sequence: VSSPKYGSNDE [TMCC2_Y473_D476N]
0.452

I would be grateful if you could share the reported phosphorylation enrichment for EEETDYTPVWC [UROD_Y30_G25E] .
0.689

----------
# phosphorylation enrichment per entry
measured_target: EPHB2 (UniProt P29323)
Sequence (P29323 whole entry, looked up): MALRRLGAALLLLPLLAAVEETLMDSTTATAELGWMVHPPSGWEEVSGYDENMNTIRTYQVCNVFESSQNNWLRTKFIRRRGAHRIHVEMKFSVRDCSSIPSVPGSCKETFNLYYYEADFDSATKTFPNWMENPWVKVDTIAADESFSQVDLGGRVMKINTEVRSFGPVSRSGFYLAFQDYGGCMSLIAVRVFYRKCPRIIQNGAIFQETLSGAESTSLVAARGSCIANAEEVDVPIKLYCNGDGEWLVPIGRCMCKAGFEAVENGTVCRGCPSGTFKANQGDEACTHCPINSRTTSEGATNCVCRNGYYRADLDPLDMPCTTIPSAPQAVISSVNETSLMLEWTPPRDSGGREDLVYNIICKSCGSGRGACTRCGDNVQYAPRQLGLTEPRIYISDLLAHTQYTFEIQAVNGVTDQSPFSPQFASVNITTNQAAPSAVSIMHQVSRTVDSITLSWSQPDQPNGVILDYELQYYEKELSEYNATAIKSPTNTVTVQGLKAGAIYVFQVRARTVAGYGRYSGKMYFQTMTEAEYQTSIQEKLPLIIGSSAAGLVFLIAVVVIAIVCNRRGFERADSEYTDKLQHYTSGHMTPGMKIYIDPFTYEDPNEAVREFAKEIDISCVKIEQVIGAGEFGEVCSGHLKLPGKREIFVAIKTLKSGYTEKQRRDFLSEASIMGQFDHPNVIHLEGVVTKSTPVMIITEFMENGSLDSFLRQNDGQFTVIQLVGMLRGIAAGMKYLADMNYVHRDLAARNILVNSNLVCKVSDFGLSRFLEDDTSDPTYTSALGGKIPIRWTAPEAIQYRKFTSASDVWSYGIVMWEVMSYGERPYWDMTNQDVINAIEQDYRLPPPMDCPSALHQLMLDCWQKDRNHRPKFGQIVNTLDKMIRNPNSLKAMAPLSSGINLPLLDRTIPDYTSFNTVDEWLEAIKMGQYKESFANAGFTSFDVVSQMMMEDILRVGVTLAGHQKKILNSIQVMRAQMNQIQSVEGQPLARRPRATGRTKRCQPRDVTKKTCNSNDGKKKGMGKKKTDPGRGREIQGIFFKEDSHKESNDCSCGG
protocol_text: phosphorylation enrichment, bacterial display (enrichment ratio); higher = better substrate or ligand; peptides without Tyr show the background

Answered cases to consult:
input_sequence: KNITEYCRDLI [RECQL_Y492]
measured_target: EPHB2 (UniProt P29323)
measurement_name: phosphorylation enrichment
result: 0.606
--
input_sequence: VEYAKYGSLRG [RET_Y809]
measured_target: EPHB2 (UniProt P29323)
measurement_name: phosphorylation enrichment
result: 0.409
--
input_sequence: GHPYAYDWISI [BEST1_Y227_L224P]
measured_target: EPHB2 (UniProt P29323)
measurement_name: phosphorylation enrichment
result: 1.07

Value lookup for phosphorylation enrichment; key = QQLDEYQELLD [LMNA_Y359]
0.757

Give the measured phosphorylation enrichment of CDTKLYTSVPN [DNTTIP2_Y427_A430V] .
0.77

Value lookup for phosphorylation enrichment; key = SVTFTYSPALN [TP53_Y126_C124Y_YF]
0.554

Given KSNSDYVDVLP [SH2D1B_Y127_N122K] , state its recorded phosphorylation enrichment.
1.45

Which phosphorylation enrichment is listed for RTCSSYTIEKI [PARP15_Y520_A521T] ?
0.474

Looking for the measured phosphorylation enrichment of GHGRFYMKEAI [PGM1_Y66_D62H] , can you help?
0.418

Param item = SRVNKYSTAFG [GJB3_Y16_G12R] ; retrieve measured phosphorylation enrichment.
0.347

Name the reported phosphorylation enrichment value associated with the sequence RFGRKYKKVRF [F8_Y442_I438F]
0.551

Recorded phosphorylation enrichment for NTYEKYWLFYQ [GATM_Y103_P105L] , please?
2.94

Quick one: phosphorylation enrichment for ADCRYYTFPQM [GAMT_Y223_A224T] ?
2.84

Any idea what phosphorylation enrichment was measured for QPGTDYKIYRY [FN1_Y1970_L1974R] ?
0.555

Recorded phosphorylation enrichment of DLDTDYGSGYP [RNASEH2A_Y206] , please.
0.648

Please report the recorded phosphorylation enrichment for TLPAFYMGNFS [GLB1_Y552] .
0.619

For the sequence shown here, QLFGAYLRIHA [BSCL2_Y213_YF] , give the reported phosphorylation enrichment.
0.915

Requested read-out: phosphorylation enrichment. Entry: YENGEYIVRQG [PRKG1_Y247_I249V]
0.464

Recorded phosphorylation enrichment of FFDANCDGKEF [MAPRE2_Y162_Y162C_YF] , please.
0.62

Entry MGCVNYGAFIN [GLB1_Y485_R482C_YF] : reported phosphorylation enrichment = ?
0.617

// returns reported phosphorylation enrichment for input LIPIKYKAMKK [MYD88_Y257]
0.384

Would you mind telling me what phosphorylation enrichment value was observed for FPKARYRWLVL [APTX_Y214_H215R_YF] ?
0.371

Given the sequence ATVRPYRPYII [LRP5_Y1528_A1525V] , what is its reported phosphorylation enrichment?
0.552

Need phosphorylation enrichment of KGKLIYLLRDS [NXPE1_Y350_G353R] , thanks.
0.447

Can you look up the measured phosphorylation enrichment of MSRDVYSTDCY [NTRK2_Y702_Y706C] for me?
0.701

Query: phosphorylation enrichment; subject: EEGESHVCSSD [DCX_Y125_Y125H]
0.545

----------
Test system: c-Src
protocol_text: phosphorylation enrichment, bacterial display (enrichment ratio); higher = better substrate or ligand; peptides without Tyr show the background
Collected phosphorylation enrichment values appear next to each entry.
Write the value as a bare number.

Below: 6 sequences and their reported phosphorylation enrichment.
input_sequence: YLENYYDLEKD [MMP3_Y42_K45E]
phosphorylation enrichment: 2.29

input_sequence: VEDQFYCVDCF [FHL1_Y208_YF]
phosphorylation enrichment: 1.73

input_sequence: TSYSGYRYHRH [NKAPL_Y94]
phosphorylation enrichment: 0.555

input_sequence: LKLWDYRRGRC [WDR5B_Y239_S240R]
phosphorylation enrichment: 0.672

input_sequence: HLTNQFMQRVA [PABPC4_Y382_Y382F]
phosphorylation enrichment: 0.541

input_sequence: FISVGYVDGTQ [HLA-B_Y51_D54G]
phosphorylation enrichment: 0.398

# context switch: different sequence, same phosphorylation enrichment
Need phosphorylation enrichment of SGGGLYRDMGA [CBX8_Y321] , thanks.
0.373
